experiment_summary: chemical genetic growth profiling, strain panel (AID 1159580);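 note: tested at 20 µM; growth read once vehicle control cultures reached saturation at 30 °C; 1 = growth at the plate median or of vehicle wells; lower values mean less growth of the strain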
recorded_conditions: S. cerevisiae deletion strains, growth OD, locus YOR061W, strain CKA2, stronger effect = lower value
The whole screen tested about 5,500 compounds, of which about 2,000 (36%) were called active. Inconclusive results (about 18%) are left out. This is one part of the list.
Quick reference for normalized growth among some compounds
I only need the number, thanks.

[[record]]
compound = "C1CCN2CC3CC(CN4CCCCC34)C2C1 (configuration not stated)"
readout_label = "normalized growth"
value = 1.01

[[record]]
compound = "CS(=O)(=O)CCCCN=C=S"
readout_label = "normalized growth"
value = 0.936

[[record]]
compound = "Oc1c(Cl)cc(Cl)c2cccnc12"
readout_label = "normalized growth"
value = 0.045

[[record]]
compound = "Fc1cccc(Cl)c1CSc1nncn1-c1ccc(OCc2ccccc2)cc1"
readout_label = "normalized growth"
value = 0.982


For reference, reported normalized growth for `COc1c2c(cc3c1OCO3)CCN(C)C2` stands at 1.01

For reference, reported normalized growth for CSCCC(NC=O)C(=O)NC(C)C(=O)O (configuration not stated) stands at 0.993

For reference, reported normalized growth for O=C1CCCC2C3CC(CN12)[C@@H]1CCCCN1C3 (some centres not stated) stands at 0.988
